Every entry's value here was drawn from patent US20050124622A1.

measurementTarget: NMDA receptor glycine site (Rattus norvegicus, UniProt P35439)
Construct: brain membranes bearing the receptor; tissue Analytical Biological Services Inc; host or cells: rat brain (cerebral cortex and hippocampus) membranes
protocolNotes: Test A: Inhibition of binding of [3H]-MDL105,519 to brain membranes
reportedEndpoint: pKi
// pKi: -log10(molar conc.)

Recorded pKi, per entry:
compound: O=c1c2ccc(Cl)cc2[nH]c2c(O)nn(Cc3ccc(-c4nnco4)cc3)c(=O)c12
pKi: 7.02
//
compound: CC(C)(C)OC(=O)NN=Cc1ccc(Cn2nc(O)c3[nH]c4cc(Cl)ccc4c(=O)c3c2=O)cc1
pKi: 6.91
//
compound: O=Cc1ccc(Cn2nc(O)c3[nH]c4cc(Cl)ccc4c(=O)c3c2=O)cc1
pKi: 6.76
//
compound: O=C(NN=Cc1ccc(Cn2nc(O)c3[nH]c4cc(Cl)ccc4c(=O)c3c2=O)cc1)c1ccccc1
pKi: 7.04

Hello, please tell me recorded pKi for this one: O=c1c2ccc(Cl)cc2[nH]c2c(O)nn(CC3CCCO3)c(=O)c12 (racemic)
6.35

Hello, please tell me recorded pKi for this one: `O=c1c2ccc(Cl)cc2[nH]c2c(O)nn(Cc3ccc(C=NNc4ccccn4)cc3)c(=O)c12`
6.80

Hello, please tell me recorded pKi for this one: `Cc1cc(C)c(S(=O)(=O)NN=Cc2ccc(Cn3nc(O)c4[nH]c5cc(Cl)ccc5c(=O)c4c3=O)cc2)c(C)c1`
6.64

Hello, please tell me recorded pKi for this one: Cc1ncc(CO)c(Cn2nc(O)c3[nH]c4cc(Cl)ccc4c(=O)c3c2=O)c1O [Ex. 3, Methanesulfonate]
5.94
